- ASSAY_NOTES: Oral bioavailability in dog at 3 mg/kg
- Type: ADME, organism-based, Canis lupus familiaris
- ASSAY_CONTEXT: in vivo
PARAMETER_MEASURED: bioavailability (%)

{"SMILES_TEXT": "O=C(NC1CC1)c1cn(-c2cccc(-c3ccc([C@@H]4C[C@H]4C(=O)O)c(F)c3)c2)c2ncccc2c1=O", "PARAMETER_MEASURED": "bioavailability", "NUMERIC_RESULT": 100}

====

- ASSAY_NOTES: Oral bioavailability in Sprague-Dawley rat at 10 mg/kg
- Type: ADME, organism-based
- ASSAY_CONTEXT: Sprague-Dawley, in vivo
PARAMETER_MEASURED: bioavailability (%)

{"COMPOUND": "CC(C)(CC(=O)O)c1ccc(-c2cccc(-n3cc(C(=O)NC4CC4)c(=O)c4cccnc43)c2)cc1", "NUMERIC_RESULT": 62}
{"COMPOUND": "CC(C)(Cc1ccc(-c2cccc(-n3cc(C(=O)NC4CC4)c(=O)c4cccnc43)c2)cc1)C(=O)O", "NUMERIC_RESULT": 30}
{"COMPOUND": "O=C(NC1CCC1)c1cn(-c2cccc(-c3ccc(C4CC4C(=O)O)cc3)c2)c2ncccc2c1=O (racemic)", "NUMERIC_RESULT": 20}
{"COMPOUND": "O=C(NCC(F)(F)F)c1cn(-c2cccc(-c3ccc(C4CC4C(=O)O)cc3)c2)c2ncccc2c1=O (racemic)", "NUMERIC_RESULT": 25}
{"COMPOUND": "O=C(NC1CC1)c1cn(-c2cccc(-c3ccc(C4CC4c4nnn[nH]4)cc3)c2)c2ncccc2c1=O (racemic)", "NUMERIC_RESULT": 5}
{"COMPOUND": "CC1(NC(=O)c2cn(-c3cccc(-c4ccc(C5CC5C(=O)O)cc4)c3)c3ncccc3c2=O)CC1 (racemic)", "NUMERIC_RESULT": 58}
{"COMPOUND": "O=C(NC1CC1)c1cn(-c2cccc(-c3cccc(C4CC4C(=O)O)c3)c2)c2ncccc2c1=O (racemic)", "NUMERIC_RESULT": 100}
{"COMPOUND": "O=C(NC1CC1)c1cn(-c2cccc(-c3ccccc3C3CC3C(=O)O)c2)c2ncccc2c1=O (racemic)", "NUMERIC_RESULT": 35}

====

- Test system: Brain
- ASSAY_NOTES: Drug level in brain of Lister rat during conditional taste aversion test
- Assay type: ADME, tissue-based
- ASSAY_CONTEXT: in vivo, read-out: Drug uptake

{"SMILES_TEXT": "O=C(NC1CC1)c1cn(-c2cccc(-c3ccc([C@@H]4C[C@H]4C(=O)O)c(F)c3)c2)c2ncccc2c1=O", "UNIT_SYMBOL": "nM", "concentration": 290}
{"SMILES_TEXT": "Cc1noc(/C(=C/c2cccc(-c3cc(C(C)(C)S(C)(=O)=O)cc4cccnc34)c2)c2ccc(S(C)(=O)=O)cc2)n1", "UNIT_SYMBOL": "nM", "concentration": 21}
{"SMILES_TEXT": "O=C(NC1CC1)c1cn(-c2cccc(C#Cc3ccc[n+]([O-])c3)c2)c2ncccc2c1=O", "UNIT_SYMBOL": "nM", "concentration": 48}

====

- ASSAY_NOTES: Clearance in rat at 10 mg/kg, po or 3 mg/kg, iv
- Type: ADME, organism-based
- ASSAY_CONTEXT: in vivo
PARAMETER_MEASURED: clearance (mL/min/kg)

{"SMILES_TEXT": "O=C(NC1CC1)c1cn(-c2cccc(-c3ccc([C@@H]4C[C@H]4C(=O)O)c(F)c3)c2)c2ncccc2c1=O", "UNIT_SYMBOL": "mL/min/kg", "NUMERIC_RESULT": 1}
